- System: Malme-3M
- assay-comment: NCI tumour cell line growth inhibition, 48 h
The source made the active and inactive calls. No stated cut-off is given here; in the data, active = GI50 up to about 1.1 µM and inactive = higher.
// allowed return values: active, inactive

- molecule: "COc1ccc(C(=O)/C=C/c2cc(O)c(O)cc2F)c(OC)c1"
  classification: "inactive"
- molecule: "COC(=O)C1C2C=CC(C2)N1S(=O)(=O)c1ccccc1 (configuration not stated)"
  classification: "inactive"
- molecule: "O=C1Nc2ccccc2/C1=C\\c1c(Cl)[nH]c2ccccc12"
  classification: "active"
- molecule: "O=C(/C=C/C=C/c1ccccc1)CCc1ccccc1"
  classification: "inactive"
- molecule: "O=C(NNC(=O)c1cc(/C=C/c2cccc([N+](=O)[O-])c2)nc(S)n1)Nc1ccc(Cl)cc1"
  classification: "inactive"
- molecule: "COc1cc2c(c(OC)c1)C(C)=NC(C)C2 (configuration not stated)"
  classification: "inactive"
- molecule: "CC12CP(=O)(c3ccccc3)CC1c1ccccc1C2c1ccccc1 (configuration not stated)"
  classification: "inactive"
- molecule: "C#C[C@]1(O)CC[C@H]2[C@@H]3CCC4=C/C(=N/NC(=O)c5cccc6c(=O)c7ccccc7[nH]c56)CCC4[C@H]3CC[C@@]21C (some centres not stated)"
  classification: "inactive"

Query :: Answer briefly: the call reported for CCOC(=O)Cn1c(=O)n(C)c(=O)c2[nH]cnc21 in this assay.
Result :: inactive

Query :: Please state the recorded outcome for this molecule: CCOC(=O)CCSc1nc2ccc(I)cc2c(=O)n1Cc1ccccc1
Result :: inactive

###

- System: HL-60
- assay-comment: NCI tumour cell line growth inhibition, 48 h
The source made the active and inactive calls. Rule as the data show it: active = GI50 up to about 1.1 µM and inactive = higher.
measurement-kind: GI50

- molecule: "N#C/C(N)=C(C#N)/N=C/NCc1ccccc1"
  result: "> 100 µM (inactive)"
- molecule: "COc1c2cc([N+](=O)[O-])cc1CN(C(=O)C(F)(F)F)CCOCCN(C(=O)C(F)(F)F)C2"
  result: "> 100 µM (inactive)"
- molecule: "O=c1c2cc(Br)cc(Br)c2[nH]c(=S)n1-c1ccc(/N=N/c2ccc(O)c3cccnc23)cc1"
  result: "38.1 µM (inactive)"
- molecule: "NC1CC(=O)c2cc(Br)sc21 (stereo unspecified)"
  result: "> 100 µM (inactive)"
- molecule: "O=c1nc(NC(c2ccccc2)(c2ccccc2)c2ccccc2)ccn1CCO"
  result: "41 µM (inactive)"

Now for the molecule whose GI50 we want.
// GI50 value for CC1(C)O[C@@H](CC/C=C/CO)[C@H](CC/C=C/CO)O1 : 63.8 µM (inactive)

###

- System: RPMI-8226
- assay-comment: NCI tumour cell line growth inhibition, 48 h
Activity calls are given as the source filed them. Rule as the data show it: active = GI50 up to about 1.1 µM and inactive = higher.
// allowed return values: active, inactive

Check out these entries, answers already filled in.
- molecule: "COc1ccc(C(O)/C(=N/N)c2nc3ccc(Cl)cc3nc2O)cc1 (stereo unspecified)"
  tgt: "RPMI-8226"
  classification: "inactive"
- molecule: "CCOP(=O)(/C=C\\n1cc(C)c(=O)[nH]c1=O)OCC"
  tgt: "RPMI-8226"
  classification: "inactive"
- molecule: "CSc1c(C#N)c(N)n(-c2ccc(Cl)cc2)c(=O)c1C#N"
  tgt: "RPMI-8226"
  classification: "inactive"
- molecule: "Cc1ccc(/C=C/c2n[nH]c(N/N=C/c3ccc4c(c3)OCO4)nc2=O)cc1"
  tgt: "RPMI-8226"
  classification: "inactive"
- molecule: "COCP1(=S)OC(C)CCN1C(C)C (stereo unspecified)"
  tgt: "RPMI-8226"
  classification: "inactive"

Moving on to another molecule below.
Query :: Which result was noted for this molecule in the test: O=C1Nc2ccccc2/C1=C\c1c(Cl)[nH]c2ccccc12
Result :: active

Taken from ChEMBL document CHEMBL1201862.
